Recorded log10(IC50) for the following compounds
Tgt: recombinant 12-LOX enzyme (Homo sapiens, UniProt P18054)
Assay Notes: 12-LOX fluorescent assay
Type: biochemical
Measurement Setup: several values in one cell = repeat determinations; read-out: IC50 (μM) values for in vitro lipoxygenase inhibition, 12-LOX
The base-10 logarithm of IC50, taken with IC50 in µM, is what appears here.

Example compounds with recorded log10(IC50):
compound="CN(C)C(=O)CC(c1ccccc1)c1ccc2[nH]c3ccccc3c2c1 (stereo not drawn) [SS20308-0222-01]" tgt="recombinant 12-LOX enzyme (Homo sapiens, UniProt P18054)" measured_number=1.15
compound="CN(C)CCOc1c2[nH]c(-c3ccccc3)nc2c(F)c2c1[nH]c1ccccc12 [SS20308-0121-01]" tgt="recombinant 12-LOX enzyme (Homo sapiens, UniProt P18054)" measured_number=0.06
compound="CN(C)CCc1cc(Nc2cccc(Cl)c2)cc2c1[nH]c1ccccc12 [SS20308-0258-01]" tgt="recombinant 12-LOX enzyme (Homo sapiens, UniProt P18054)" measured_number=-0.80
compound="c1ccc2c(c1)CCc1cc(C3CCOCC3)c(NCCn3cncn3)cc1N2 [SS20308-0305-01]" tgt="recombinant 12-LOX enzyme (Homo sapiens, UniProt P18054)" measured_number=-0.85
compound="Fc1c(NCC2(Cn3cncn3)COC2)ccc2[nH]c3ccccc3c12 [SS20308-0312-01]" tgt="recombinant 12-LOX enzyme (Homo sapiens, UniProt P18054)" measured_number=-1.52

Task: // fetch recombinant 12-LOX enzyme (Homo sapiens, UniProt P18054) log10(IC50) for CN(C)CCOc1cccc2c1-c1[nH]c3ccccc3c1CS2 [SS20308-0046-01]
Result: -0.21

Task: // fetch recombinant 12-LOX enzyme (Homo sapiens, UniProt P18054) log10(IC50) for Fc1cc2[nH]c3ccccc3c2cc1NCC1(Cn2cncn2)COC1 [SS20308-0304-01]
Result: -1.05

Task: // fetch recombinant 12-LOX enzyme (Homo sapiens, UniProt P18054) log10(IC50) for CN(C)CCOc1cc2c3ccccc3[nH]c2c2[nH]c3ccccc3c12 [SS20308-0103-01]
Result: 0.35

Task: // fetch recombinant 12-LOX enzyme (Homo sapiens, UniProt P18054) log10(IC50) for CN(C)CCOc1c(Nc2ccccc2)ccc2c1[nH]c1ccc(F)cc12 [SS20308-0032-01]
Result: -0.68

Task: // fetch recombinant 12-LOX enzyme (Homo sapiens, UniProt P18054) log10(IC50) for Cc1cc2[nH]c3ccc(F)cc3c2cc1NCC1(Cn2cncn2)COC1 [SS20308-0233-01]
Result: -1.52

Task: // fetch recombinant 12-LOX enzyme (Homo sapiens, UniProt P18054) log10(IC50) for CN(C)CCCc1c(O)ccc2c1[nH]c1ccc(F)cc12 [SS20308-0068-01]
Result: -0.11

Task: // fetch recombinant 12-LOX enzyme (Homo sapiens, UniProt P18054) log10(IC50) for CN(C)CCOc1c2nc(-c3ccccc3)[nH]c2cc2[nH]c3ccccc3c12 [SS20308-0122-01]
Result: -0.06

###

Tgt: recombinant 12-LOX enzyme (Homo sapiens)
Sequence (P18054 1-663): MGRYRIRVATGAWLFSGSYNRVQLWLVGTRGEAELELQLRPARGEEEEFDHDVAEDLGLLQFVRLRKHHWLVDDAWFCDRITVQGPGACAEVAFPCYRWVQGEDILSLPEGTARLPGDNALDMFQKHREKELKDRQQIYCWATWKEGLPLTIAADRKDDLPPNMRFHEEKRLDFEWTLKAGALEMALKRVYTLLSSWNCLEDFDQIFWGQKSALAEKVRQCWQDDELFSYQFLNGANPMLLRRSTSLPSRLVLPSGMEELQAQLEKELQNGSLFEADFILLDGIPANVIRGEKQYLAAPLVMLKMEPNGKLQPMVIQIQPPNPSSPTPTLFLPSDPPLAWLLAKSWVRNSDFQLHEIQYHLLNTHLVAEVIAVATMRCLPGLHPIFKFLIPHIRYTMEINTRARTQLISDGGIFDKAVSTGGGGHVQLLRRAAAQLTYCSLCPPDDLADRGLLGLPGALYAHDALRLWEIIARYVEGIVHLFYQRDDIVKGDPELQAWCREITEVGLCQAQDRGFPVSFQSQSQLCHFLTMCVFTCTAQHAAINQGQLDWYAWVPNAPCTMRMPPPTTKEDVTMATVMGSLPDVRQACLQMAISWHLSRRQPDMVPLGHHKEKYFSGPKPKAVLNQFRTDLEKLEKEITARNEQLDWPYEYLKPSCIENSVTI
Assay Notes: 12-LOX fluorescent assay
Assay type: biochemical
Measurement Setup: several values in one cell = repeat determinations; read-out: IC50 (μM) values for in vitro lipoxygenase inhibition, 12-LOX
API: label(entry) gives yes if the entry's IC50 is strictly smaller than 0.8 µM; on equality or larger values it gives no.

Examples from the recorded data:
sample_smiles=CN(C)CCOc1c(CNc2ccccc2)ccc2c1[nH]c1ccccc12 cat=no
sample_smiles=Clc1c(NCCn2cncn2)ccc2c1Nc1ccccc1CC2 cat=no
sample_smiles=COc1ccc2c([nH]c3ccc(F)cc32)c1CCCN(C)C cat=no
sample_smiles=Fc1ccc2[nH]c3cc(C(F)(F)F)c(NCC4(Cn5cncn5)COC4)cc3c2c1 cat=yes
sample_smiles=Cc1cc(OCCn2cncn2)c2[nH]c3ccccc3c2c1 cat=no
sample_smiles=Fc1ccc2[nH]c3c(NCCn4cncn4)c(-c4ccccc4)ccc3c2c1 cat=yes
sample_smiles=Fc1ccc2[nH]c3c(OCCn4cncn4)cc(Oc4ccccc4)cc3c2c1 cat=no
sample_smiles=Cc1c2[nH]c3ccccc3c2cc2[nH]c3ccccc3c12 cat=no

Okay, next one:
Task: Is the reported IC50 for CN(C)CCOc1cc2c(cc1CNc1ccccc1)[nH]c1ccccc12 strictly below 0.8 µM?
Result: no

Where do the numbers come from? From patent US20230174485A1.
